Recorded values, source patent US9796733B2.

EXPERIMENTAL_TARGET: sGC α1/β1 heterodimer (Homo sapiens, UniProt Q02108+Q02153)
Construct: expressed in transfected cells; host or cells: CHO-K1 (clone #7, CHO-K1/sGC)
PROTOCOL_TEXT: Cell-based sGC functional assay (CASA assay): cGMP generation in CHO-K1/sGC cells, HTRF detection
CONDITION_DETAILS: inflection point (IP) of cGMP generation in CHO-K1/sGC cells, 4P fit; activity expressed as percentage of Compound A
MEASUREMENT_KIND: log10 of EC50 (log10 of the value in nM)
Hello, just confirming the data are log10 of EC50 with units of nM.

The cases that follow already have their log10 of EC50 on record.
CC1(c2ccc(F)cc2)C(=O)Nc2nc(-c3cn4ccnc4c(-c4ccc(C5CC5)cc4)n3)nc(N)c21 (centres unmarked)	2.75
CCCCc1nc(-c2nc(N)c3c(n2)NC(=O)C3(c2ccc(Cl)cc2)C2CC2)cn2ccnc12 (centres unmarked) [Example 332B]	1.48
CC1(C)C(=O)Nc2nc(-c3cn4ccnc4c(Cc4cccc(C#N)c4)n3)nc(N)c21	2.56
CCC1(c2ccc(F)cc2)C(=O)Nc2nc(-c3cn4ccnc4c(CCCC(F)(F)F)n3)nc(N)c21 (centres unmarked) [Example 215A]	2.55
CCCc1nc(-c2nc(N)c3c(n2)NC(=O)C3(C)c2ccc(OC(F)(F)F)cc2)cn2ccnc12 (centres unmarked) [Example 24A]	2.61
CC1(C(=O)NC2CC2)C(=O)Nc2nc(-c3cn4ccnc4c(Cc4cccc(F)c4)n3)nc(N)c21 (single isomer, unassigned) [Example 36B]	2.98
Cc1cnc2c(CCC(F)(F)C(F)(F)F)nc(-c3nc(N)c4c(n3)NC(=O)C4(C)c3ccc(F)cn3)cn12 (centres unmarked) [Example 173B]	2.19
Nc1nc(-c2cn3ccnc3c(CCC(F)(F)F)n2)nc2c1C(c1ncc(Cl)cn1)(C1CC1)C(=O)N2 (centres unmarked) [Example 374A]	2.59
CC1(c2ccc(Cl)cc2)C(=O)Nc2nc(-c3cn4ccnc4c(CC4CCC4)n3)nc(N)c21 (centres unmarked) [Example 118A]	1.52
CC1(c2ccc(Cl)cn2)C(=O)Nc2nc(-c3cn4ccnc4c(Cc4ccc(F)cc4)n3)nc(N)c21 (centres unmarked) [Example 107A]	1.93

Q: // returns reported log10 of EC50 for input CC1(c2ccc(OC(F)(F)F)cc2)C(=O)Nc2nc(-c3cn4ccnc4c(CCC(F)(F)C(F)(F)F)n3)nc(N)c21 (centres unmarked) [Example 234B]
Ans: 1.43

Q: Return reported log10 of EC50; argument: CCC1(c2ccc(F)cc2)C(=O)Nc2nc(-c3cn4c(F)cnc4c(CCC(F)(F)C(F)(F)F)n3)nc(N)c21 (centres unmarked) [Example 276A]
Ans: 1.34

Q: Need log10 of EC50, item CC1(C2CC2)C(=O)Nc2nc(-c3cn4ccnc4c(Cc4ccccc4)n3)nc(N)c21 (centres unmarked) [Example 82A]
Ans: 1.95

Q: // lookup log10 of EC50 for Nc1nc(-c2cn3ccnc3c(Cc3cccc(F)c3)n2)nc2c1C(C(=O)NC1CC1)(C1CC1)C(=O)N2 (single isomer, unassigned) [Example 38B]
Ans: 0.85

---

EXPERIMENTAL_TARGET: sGC α1/β1 heterodimer (Homo sapiens, UniProt Q02108+Q02153)
Construct: expressed in transfected cells; host or cells: CHO-K1 (clone #7, CHO-K1/sGC)
PROTOCOL_TEXT: Cell-based sGC functional assay (CASA assay): cGMP generation in CHO-K1/sGC cells, HTRF detection
CONDITION_DETAILS: CHO-K1, percent activation relative to standard Compound A in CHO-K1/sGC cells; read-out: % Act.
Description: Biological Assay 1: Cell-Based sGC Functional Assay (CASA Assay) sGC is a heme-containing enzyme that converts GTP to secondary messenger cGMP. […] A CHO-K1 cell line stably expressing the sGC α1/β1 heterodimer was generated using a standard transfection protocol. […] The level of intracellular cGMP was determined using an HTRF-based assay kit (CisBio, 62GM2PEC), which detects the displacement of a fluorescence labeled cGMP from its specific antibody. […]
MEASUREMENT_KIND: Emax (%)
Please reply with the bare figure in % and do not write the unit itself.

Solved cases (2 shown):
CC1(c2cccc(F)c2)C(=O)Nc2nc(-c3cn4ccnc4c(CCC(F)(F)F)n3)nc(N)c21 (stereo not shown) [Example 191A]	90
Nc1nc(-c2cn3ccnc3c(CCCC(F)(F)F)n2)nc2c1C(c1ccc(C(F)F)cn1)(C1CC1)C(=O)N2 (single isomer, unassigned) [Example 378B]	92

Q: Fill in: Emax of Nc1nc(-c2cn3ccnc3c(CCCC(F)(F)F)n2)nc2c1C(c1cc(C(F)(F)F)ccn1)(C1CC1)C(=O)N2 (single isomer, unassigned) [Example 354B] is ___
Ans: 137

Q: Which Emax reading was recorded for the molecule COCCNc1nc(-c2cn3ccnc3c(CCC(F)(F)C(F)(F)F)n2)nc2c1C(C)(c1ccc(F)cn1)C(=O)N2 (stereo not shown) [Example 293B] ?
Ans: 107

---

EXPERIMENTAL_TARGET: sGC α1/β1 heterodimer (Homo sapiens, UniProt Q02108+Q02153)
Sequence (Q02108 1-690): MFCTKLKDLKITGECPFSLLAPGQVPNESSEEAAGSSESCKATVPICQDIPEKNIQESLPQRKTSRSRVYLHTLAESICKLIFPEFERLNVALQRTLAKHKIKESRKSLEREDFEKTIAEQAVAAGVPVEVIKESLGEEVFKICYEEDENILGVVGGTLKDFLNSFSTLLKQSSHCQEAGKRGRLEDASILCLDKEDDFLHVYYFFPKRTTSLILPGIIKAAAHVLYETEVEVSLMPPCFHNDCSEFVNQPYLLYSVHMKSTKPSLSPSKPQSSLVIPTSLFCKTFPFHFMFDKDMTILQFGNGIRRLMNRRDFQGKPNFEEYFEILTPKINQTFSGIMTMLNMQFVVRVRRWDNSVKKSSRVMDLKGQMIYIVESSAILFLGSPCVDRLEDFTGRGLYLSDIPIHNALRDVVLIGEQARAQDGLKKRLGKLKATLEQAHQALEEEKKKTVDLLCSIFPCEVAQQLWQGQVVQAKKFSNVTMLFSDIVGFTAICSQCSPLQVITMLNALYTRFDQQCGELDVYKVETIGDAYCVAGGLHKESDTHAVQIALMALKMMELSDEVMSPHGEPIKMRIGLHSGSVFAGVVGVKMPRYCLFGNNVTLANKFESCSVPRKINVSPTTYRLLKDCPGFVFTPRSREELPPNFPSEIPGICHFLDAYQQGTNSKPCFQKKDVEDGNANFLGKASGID
Sequence (Q02153 1-619): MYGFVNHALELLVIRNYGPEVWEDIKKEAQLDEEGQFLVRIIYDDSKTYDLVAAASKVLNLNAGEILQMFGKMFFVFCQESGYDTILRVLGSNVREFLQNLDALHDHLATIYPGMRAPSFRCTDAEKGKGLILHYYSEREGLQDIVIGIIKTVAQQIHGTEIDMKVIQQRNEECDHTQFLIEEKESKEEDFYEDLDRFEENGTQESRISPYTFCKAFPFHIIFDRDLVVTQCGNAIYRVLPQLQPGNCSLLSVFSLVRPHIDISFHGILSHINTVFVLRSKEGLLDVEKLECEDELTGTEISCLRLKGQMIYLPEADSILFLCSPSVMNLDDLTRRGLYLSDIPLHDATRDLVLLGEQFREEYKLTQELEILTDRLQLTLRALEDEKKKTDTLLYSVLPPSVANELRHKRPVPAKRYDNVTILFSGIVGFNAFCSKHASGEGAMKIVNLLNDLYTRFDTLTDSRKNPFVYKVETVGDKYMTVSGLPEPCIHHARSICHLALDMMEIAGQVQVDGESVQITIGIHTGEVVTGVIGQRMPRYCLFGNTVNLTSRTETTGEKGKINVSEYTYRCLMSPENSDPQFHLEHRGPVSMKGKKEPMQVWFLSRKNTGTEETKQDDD
PROTOCOL_TEXT: Cell-based sGC functional assay (CASA assay): cGMP generation in CHO-K1/sGC cells, HTRF detection
CONDITION_DETAILS: inflection point (IP) of cGMP generation in CHO-K1/sGC cells, 4P fit; activity expressed as percentage of Compound A
pEC50: −log10 of the molar value.
# cutoff 7 applies to pEC50; >= gives Met, < gives Not met

// below: answered molecules
CC1(C)C(=O)Nc2nc(-c3cn4ccnc4c(Cc4ccc(F)c(F)c4)n3)nc(N)c21 [Example 73]	Met
CC1(c2ccc(F)cc2)C(=O)Nc2nc(-c3cn4ccnc4c(Cc4cccc(F)c4)n3)nc(N)c21 (single isomer, unassigned) [Example 90A]	Met
CC1(c2ccc(F)cc2)C(=O)Nc2nc(-c3cn4ccnc4c(CCC(F)(F)C(F)(F)F)n3)nc(N3CCSCC3)c21 (stereo not shown) [Example 300A]	Not met
CC(C)n1cc(C2(C)C(=O)Nc3nc(-c4cn5ccnc5c(CCC(F)(F)C(F)(F)F)n4)nc(N)c32)nn1 (stereo not shown) [Example 67A]	Not met
CC1(c2ccc(OC(F)F)cn2)C(=O)Nc2nc(-c3cn4ccnc4c(CC4CCC4)n3)nc(N)c21 (stereo not shown) [Example 117A]	Met

Consider the additional molecule presented here.
Q: Is pEC50 at least 7? Consider CC(C)C1(C)C(=O)Nc2nc(-c3cn4ccnc4c(Cc4ccccc4)n3)nc(N)c21 (single isomer, unassigned) [Example 80B]
Ans: Not met
